The reported numbers originate from paper PMC10444810.

tested on: sandwich-cultured PXB-cells; settings: human, 5 min, 1 μM
observation type: BEI (%) Mean
Hi! Could you send only the number? It should be in %, unit omitted.

Examples with their reported BEI (%) Mean follow.
[[record]]
compound = "CN(Cc1cnc2nc(N)nc(N)c2n1)c1ccc(C(=O)N[C@@H](CCC(=O)O)C(=O)O)cc1 [Methotrexate, methotrexate]"
observation_type = "BEI (%) Mean"
units = "%"
assay_result = 14.8

[[record]]
compound = "CCOc1ccc2ccccc2c1C(=O)N[C@@H]1C(=O)N2[C@@H]1SC(C)(C)[C@@H]2C(=O)O"
observation_type = "BEI (%) Mean"
units = "%"
assay_result = 42.7

[[record]]
compound = "C[C@H]1O[C@@H](O[C@H]2[C@@H](O)C[C@H](O[C@H]3[C@@H](O)C[C@H](O[C@H]4CC[C@@]5(C)[C@H](CC[C@@H]6[C@@H]5C[C@@H](O)[C@]5(C)[C@@H](C7=CC(=O)OC7)CC[C@]65O)C4)O[C@@H]3C)O[C@@H]2C)C[C@H](O)[C@@H]1O"
observation_type = "BEI (%) Mean"
units = "%"
assay_result = 28.3

[[record]]
compound = "CC[C@]1(O)C[C@H]2CN(CCc3c([nH]c4ccccc34)[C@@](C(=O)OC)(c3cc4c(cc3OC)N(C=O)[C@H]3[C@@](O)(C(=O)OC)[C@H](OC(C)=O)[C@]5(CC)C=CCN6CC[C@]43[C@@H]65)C2)C1"
observation_type = "BEI (%) Mean"
units = "%"
assay_result = 16.5

[[record]]
compound = "CN/C(=N/CCSCc1nc[nH]c1C)NC#N"
observation_type = "BEI (%) Mean"
units = "%"
assay_result = 32.5


Now for the compound whose BEI (%) Mean we want.
Provide value of BEI (%) Mean for this record tested with sandwich-cultured PXB-cells: CC[C@H]1OC(=O)[C@H](C)[C@@H](O[C@H]2C[C@@](C)(OC)[C@@H](O)[C@H](C)O2)[C@H](C)[C@@H](O[C@@H]2O[C@H](C)C[C@H](N(C)C)[C@H]2O)[C@](C)(O)C[C@@H](C)C(=O)[C@H](C)[C@@H](O)[C@]1(C)O
22.5
